# Tested on: SR leukemia
# test-protocol: NCI tumour cell line growth inhibition, 48 h
measurement-name: TGI

INSERT INTO results (compound, result) VALUES
  ('COc1cccc2c1CCc1ccccc1CC2=O', '> 100 µM'),
  ('CC1CN=C(Nc2ccc(F)cc2F)S1 (configuration not stated)', '> 100 µM'),
  ('CCOc1cccc(/C=N/NC(=O)c2ccc(Nc3ccnc(C(F)(F)F)c3)cc2)c1O', '> 100 µM'),
  ('COC1=C2CC(C)CC(OC)[C@@H](OC(=O)CCN)[C@H](C)/C=C(\C)C(OC(N)=O)C(OC)/C=C\C=C(/C)C(=O)NC(=CC1=O)C2=O (some centres not stated)', '8.71 µM'),
  ('Cc1c(Cl)ccc2c1NC(=O)C2(O)C(C(=O)c1ccccc1)c1ccccc1 (configuration not stated)', '60.2 µM'),
  ('COC(=O)CCCN(C)c1n[nH]c(N)n1', '> 100 µM'),
  ('COc1cc(/C=C2\[C@H]3c4c(c(OC)c(C)c(OC)c4OC)C[C@@H](C(=O)N2Cc2ccccc2)N3C(=O)OCC(C)C)c(OC)c(C)c1OC', '> 100 µM'),
  ('CCCN(CCC)C(=O)C1=Cc2ccc(-c3ccc(C(=O)N4CCCC4)cc3)cc2N=C(N)C1', '18.3 µM'),
  ('CCN(CC)CC(=O)Nc1c(C(N)=O)nnn1Cc1cc(Cl)c(C(=O)c2ccc(Cl)cc2)c(Cl)c1', '68.9 µM'),
  ('COc1cc(C2=NN(C)C(c3ccc([N+](=O)[O-])o3)C2)cc(OC)c1OC (configuration not stated)', '38.6 µM'),
  ('Cc1ccc(NC(=O)C(=O)C2C(=O)N(c3ccccc3)N=C2N)cc1C (configuration not stated)', '> 100 µM'),
  ('O=C(O)CN1CCNCCN(CP(=O)(O)O)CC1', '> 100 µM'),
  ('S=C1SC(=Nc2ccccc2)C(=Nc2ccccc2)N1c1ccccc1', '> 100 µM'),
  ('Cc1ccc2c(c1)C(=O)/C(=C\c1ccccc1)CCS2(=O)=O', '> 24.7 µM'),
  ('COc1ccc2c(=O)c(C)c(-c3ccccc3)oc2c1CN(C)C', '> 100 µM'),
  ('Cc1cc(N2CCCCC2)nc(N(CCCNc2ccnc3cc(Cl)ccc23)Cc2ccco2)n1', '4.71 µM'),
  ('O=S1(=O)OCCOS(=O)(=O)C1I', '> 100 µM'),
  ('Cc1ccccc1C1CC(=O)CC(c2ccccc2C)C12C(=O)NC(=O)NC2=O (configuration not stated)', '> 100 µM'),
  ('O=c1c2cccc(Cl)c2sc2c(NCCCNCCO)nc3ccccc3c12', '5.97 µM'),
  ('COc1cc(O)c2c(O)c3c(c4c2c1[C@]1(C4)C(C)=CCCC1(C)C)[C@H](O)[C@@]1(O)CC(=O)C(C(N)=O)=C(O)[C@@]1(O)C3=O', '1.45 µM'),
  ('Cc1ccc(S(=O)(=O)N2CC3OC(C)(C)OC3C2CO)cc1 (configuration not stated)', '> 100 µM'),
  ('O=C1NN(c2ccc(C(=O)O)cc2)C(=O)/C1=C\c1ccc([N+](=O)[O-])o1', '> 100 µM');

---

# System: RXF 393 renal
# test-protocol: NCI tumour cell line growth inhibition, 48 h
measurement-name: TGI

INSERT INTO results (compound, result) VALUES
  ('Nc1nc(N)c(N=O)c(Nc2ccc(O)cc2)n1', '> 100 µM'),
  ('CN(NC(=O)c1ccco1)C1=NCCN1', '> 100 µM'),
  ('OC12c3ccccc3C1(N1CCOCC1)CCCCC21OCCCO1 (centres undefined)', '> 100 µM'),
  ('Cc1ccccc1C1CC(=O)CC(c2ccccc2C)C12C(=O)NC(=O)NC2=O (centres undefined)', '> 100 µM'),
  ('C=C(C)C1CC=C(C)[C@](O)(C2(O)C[C@H](C(=C)C)CC=C2C)C1 (some centres undefined)', '> 100 µM'),
  ('COC(OC)C1OC(CO)C(n2cc(C)c(=O)[nH]c2=O)C1O (centres undefined)', '> 100 µM'),
  ('CN(C)CCNC(=O)c1cc2ccccc2c2nc3ccccc3nc12', '2.33 µM'),
  ('COC(=O)CCC(=O)CC(=O)C1=NS(=O)(=O)c2nc(S(N)(=O)=O)c(Cl)cc2N1', '> 100 µM'),
  ('Cn1cc(-c2nc(-c3c[nH]c4ncccc34)cs2)c2cc(F)ccc21', '9.14 µM'),
  ('CC1=NN(c2ccccc2)C(=O)C1=C1SCCS1', '> 65.4 µM'),
  ('COC(=O)[C@@H]1CN(C(=O)c2ccccc2)C(=O)N1', '> 100 µM'),
  ('CC(=O)OC(/C=C1/C=CC(=O)O1)COC(=O)c1ccccc1 (centres undefined)', '> 31.2 µM'),
  ('COc1ccc2c(=O)c(C)c(-c3ccccc3)oc2c1CN(C)C', '> 100 µM'),
  ('COc1cc(C2c3cc4c(cc3OC(NC3CCCCC3)C2C)OCO4)cc(OC)c1OC (centres undefined)', '0.82 µM'),
  ('CC1=CC(=NC(=O)CBr)C=C/C1=N\S(=O)(=O)c1ccccc1', '3.89 µM'),
  ('c1ccc(Cn2cc3c(c2-c2ccccc2)CCc2cnoc2-3)cc1', '61.2 µM'),
  ('Cc1cc(NC(=S)Nc2ccccc2)c(NC(=S)Nc2ccccc2)cc1C', '> 80.8 µM'),
  ('CC1C(=O)OC2CC[N+]3(CC(=O)c4ccc(Br)cc4)CC=C(COC(=O)C(C)(O)C1(C)O)C23 (centres undefined)', '> 375 µM'),
  ('CCOc1c(Br)cc(C2C(C(=O)OC)=CN(C)C=C2C(=O)OC)cc1OC', '> 100 µM'),
  ('CC1=NN(c2ccccc2)C(=O)C1N=Nc1ccc([As](=O)(O)O)c(O)c1 (centres undefined)', '> 100 µM'),
  ('CCCCCCCCCCCCCC(=O)O[C@H]1CC[C@H](NC(=O)[C@H](OC)[C@H](O)[C@@H](O)[C@H](O)/C=C/C(C)C)C(=O)NC1', '0.283 µM'),
  ('CSc1c(C(=O)Nc2ccc(Cl)cc2)c(N)nn1-c1ccccc1', '> 87.4 µM'),
  ('CC(C)CNC(=O)CCc1cccc2c1oc1c(CCN)cccc12', '31.4 µM'),
  ('CCSc1nc(N)c2c(-c3ccc(OC)c(OC)c3)c3c(nc2n1)CCCC3', '> 100 µM'),
  ('COc1ccc2nc(-c3cc(-c4cc(OC)c(OC)c(OC)c4)n[nH]3)[nH]c2c1', '12.3 µM'),
  ('CC[C@H](C)[C@H]1NC(=O)[C@@H](N[C@](C)(O)[C@@H](N)CC(C)C)[C@@H](C)OC(=O)[C@H](Cc2ccc(OC)cc2)N(C)C(=O)[C@@H]2CCCN2C(=O)[C@H](CC(C)C)NC(=O)[C@@H](C)C(=O)[C@H](C(C)C)OC(=O)C[C@@H]1O', '0.173 µM'),
  ('COc1cc(NS(C)(=O)=O)ccc1Nc1c2ccc(Cl)cc2nc2c(OC)cccc12', '3.04 µM'),
  ('COc1cc(O)c2c(O)c3c(c4c2c1[C@]1(C4)C(C)=CCCC1(C)C)[C@H](O)[C@@]1(O)CC(=O)C(C(N)=O)=C(O)[C@@]1(O)C3=O', '2.13 µM'),
  ('CCCCON1C[C@@H](O)C(O)[C@@H](O)C1 (some centres undefined)', '> 100 µM'),
  ('C1=Cc2ccccc2Nc2ccccc21', '> 100 µM'),
  ('CC(=O)O[C@H]1C(=O)[C@@]2(C)[C@H]([C@H](OC(=O)c3ccccc3)[C@]3(O)C[C@H](OC(=O)[C@H](OC(=O)OCCC(O)CO)[C@@H](NC(=O)c4ccccc4)c4ccccc4)C(C)=C1C3(C)C)[C@]1(OC(C)=O)CO[C@@H]1C[C@@H]2O (some centres undefined)', '18.5 µM'),
  ('CCCCCCCC1(N=[N+]=[N-])C(=O)c2ccccc2N(C)C1=O (centres undefined)', '> 100 µM'),
  ('CCOC(=O)/C(=C\c1ccc(O)c(OC)c1)C(=O)c1ccccc1', '57.8 µM'),
  ('COc1ccc2c(c1)c(=O)c1ccccc1n2/C=C/C(=O)O', '> 100 µM'),
  ('CC1(C)COC(C23C4C5C2C2C3C4C52I)=N1 (centres undefined)', '> 100 µM'),
  ('O=C(/C=C(\O)c1ccc(Cl)cc1)C(=O)N=Nc1c(O)[nH]c2ccc(Br)cc12', '> 100 µM'),
  ('COc1cccc(C2c3cc4c(cc3OC(C)(O)C2C)OCO4)c1O (centres undefined)', '34.1 µM'),
  ('CC(=O)OC1CCN(C(=O)c2ccccc2)CC1CC1(c2cc3ccccc3[nH]2)OCCO1 (centres undefined)', '> 100 µM'),
  ('Cc1ccc(NC(=O)CCC(CC(=O)C(C)(C)C)=NNC(=O)C(=O)NN)cc1C', '> 100 µM');
